Reported AUC(0-inf) values follow for various compounds
# ASSAY INFO: Single-dose pharmacokinetics after IV bolus administration of EK-ECP
# Type: in vivo, male Sprague–Dawley rats
# TEST CONTEXT: male, Sprague-Dawley, rat, plasma; IV bolus 10 mg/kg EK-ECP, mean (CV)
MEASURE NAME: AUC(0-inf)

[
  {
    "COMPOUND": "Oc1cc(O)cc(Oc2c(O)cc(O)c3c2Oc2c(O)cc4oc5c(Oc6cc(O)cc(O)c6)c(O)cc(O)c5c4c2O3)c1 [PFF-A, phlorofucofuroeckol-A]",
    "EXPERIMENTAL RESULT": "10.1 ng·h/mL"
  },
  {
    "COMPOUND": "Oc1cc(O)cc(Oc2c(O)cc(O)c3c2Oc2c(O)cc(Oc4c(O)cc(Oc5c(O)cc(O)c6c5Oc5c(O)cc(O)cc5O6)cc4O)cc2O3)c1 [dieckol]",
    "EXPERIMENTAL RESULT": "5390 ng·h/mL"
  }
]

====

# ASSAY INFO: Single-dose pharmacokinetics and bioavailability after oral gavage administration of EK-ECP
# Type: in vivo, male Sprague–Dawley rats
# TEST CONTEXT: male, Sprague-Dawley, rat, in vivo, po, 1000 mg/kg, PO 1000 mg/kg EK-ECP, mean (CV); read-out: AUCTlast
MEASURE NAME: AUC(0-t) (ng·h/mL)

[
  {
    "SMILES CODE": "Oc1cc(O)cc(Oc2c(O)cc(O)c3c2Oc2c(cc(O)c(-c4c(O)cc5c(c4O)Oc4c(Oc6cc(O)cc(O)c6)c(O)cc(O)c4O5)c2O)O3)c1",
    "EXPERIMENTAL RESULT": 3170
  }
]

====

# ASSAY INFO: Single-dose pharmacokinetics after IV bolus administration of EK-ECP
# Assay type: in vivo, male Sprague–Dawley rats
# TEST CONTEXT: male, Sprague-Dawley, rat; IV bolus 10 mg/kg EK-ECP, plasma, mean (CV)
Reported C0 values follow for various molecules

[
  {
    "SMILES CODE": "Oc1cc(O)cc(Oc2c(O)cc(O)c3c2Oc2c(O)cc(Oc4c(O)cc(Oc5c(O)cc(O)c6c5Oc5c(O)cc(O)cc5O6)cc4O)cc2O3)c1",
    "C0": "8890 ng/mL"
  },
  {
    "SMILES CODE": "Oc1cc(O)cc(Oc2c(O)cc(O)c3c2Oc2c(O)cc4oc5c(Oc6cc(O)cc(O)c6)c(O)cc(O)c5c4c2O3)c1",
    "C0": "12.8 ng/mL"
  }
]

====

# ASSAY INFO: Single-dose pharmacokinetics and bioavailability after oral gavage administration of EK-ECP
# Type: in vivo, male Sprague–Dawley rats
# TEST CONTEXT: male, Sprague-Dawley, rat, in vivo, po, 100 mg/kg, PO 100 mg/kg EK-ECP, mean (CV); read-out: AUC(0–24h)

[
  {
    "MOLECULE": "Oc1cc(O)cc(Oc2c(O)cc(O)c3c2Oc2c(cc(O)c(-c4c(O)cc5c(c4O)Oc4c(Oc6cc(O)cc(O)c6)c(O)cc(O)c4O5)c2O)O3)c1 [8,8′-bieckol]",
    "AUC(0-t) / ng·h/mL": 41.5
  }
]

====

Reported clearance values follow for various compounds
# ASSAY INFO: Single-dose pharmacokinetics after IV bolus administration of EK-ECP
# Format: in vivo, male Sprague–Dawley rats
# TEST CONTEXT: male, Sprague-Dawley, rat, plasma; IV bolus 10 mg/kg EK-ECP; read-out: Mean clearance (Cl) (converted)
MEASURE NAME: clearance (mL/min/kg)

[
  {
    "COMPOUND": "Oc1cc(O)cc(Oc2c(O)cc(O)c3c2Oc2c(O)cc(Oc4c(O)cc(Oc5c(O)cc(O)c6c5Oc5c(O)cc(O)cc5O6)cc4O)cc2O3)c1 [dieckol]",
    "EXPERIMENTAL RESULT": 3.22
  },
  {
    "COMPOUND": "Oc1cc(O)cc(Oc2c(O)cc(O)c3c2Oc2c(O)cc4oc5c(Oc6cc(O)cc(O)c6)c(O)cc(O)c5c4c2O3)c1 [PFF-A, phlorofucofuroeckol-A]",
    "EXPERIMENTAL RESULT": 1400
  }
]
